assay.system: recombinant human KLK5 (Homo sapiens, UniProt Q9Y337)
Sequence (Q9Y337 23-293): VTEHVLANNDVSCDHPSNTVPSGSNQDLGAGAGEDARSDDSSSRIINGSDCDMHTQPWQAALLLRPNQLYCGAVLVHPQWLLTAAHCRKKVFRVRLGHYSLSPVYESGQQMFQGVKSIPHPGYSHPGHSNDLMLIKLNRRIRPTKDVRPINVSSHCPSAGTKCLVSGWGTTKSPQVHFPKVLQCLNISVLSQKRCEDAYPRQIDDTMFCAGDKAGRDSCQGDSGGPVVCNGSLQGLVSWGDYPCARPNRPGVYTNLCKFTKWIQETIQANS
test.name: Kallikrein (KLK) 5 enzymatic assay (Boc-VPR-AMC fluorogenic substrate)
stated.conditions: recombinant human KLK5 0.1 μg/well, Boc-VPR-AMC 100 μM, pH 7.5, room temperature, 1% DMSO; tested a minimum of three times
pIC50: −log10 of the molar value.
So I've got a bunch of compounds here, and I need their pIC50 values.

So, CC(C)n1nc(COc2ccccc2CC(=O)O)c2cc(-c3ccc4nccc(N)c4c3)ccc21 [Compound 25c] ? Its pIC50 was 5.00 to 6.00

Lab note: measured pIC50 of N#Cc1ccc(CC(=O)O)c(O[C@@H]2CCc3ccc(-c4cccc5c(N)nccc45)cc32)c1 [Compound 424b] was > 6.00

Field pIC50 (entry CC1(C)Cc2ccc(-c3cccc4c(N)nccc34)cc2C1Oc1cc(F)ccc1CC(=O)O (stereo not shown) [Compound 438c] ) reads > 6.00

Per the record, CC[C@@H](C)n1nc(COc2ccccc2CC(=O)O)c2cc(-c3ccc4ccnc(N)c4c3)ccc21 [Compound 190e] has pIC50 of > 6.00

Form: compound = Nc1nccc2c(-c3ccc4c(c3)c(Cn3ccc5cccc(C(=O)O)c53)nn4C3CCOC3)cccc12 (stereo not shown) [Compound 274e] ; pIC50 = 5.00 to 6.00

The measured pIC50 associated with COc1ccc(OCc2c3cc(-c4cccc5c(N)nccc45)ccc3nn2C2CCC2)c(CC(=O)O)c1 [Compound 158b] reads 5.00 to 6.00

pIC50 in this record for Cc1ccc(OCc2c3cc(-c4ccc5ccnc(N)c5c4)ccc3nn2C2CCC2)c(CC(=O)O)c1 [Compound 155d] : 5.00 to 6.00

====

Hi there, I'd appreciate the recorded pIC50 for every entry that follows.
assay.system: recombinant human KLK5 (Homo sapiens, UniProt Q9Y337)
Construct: purchased Novoprotein or R&D Systems C415 or 1108-SE
test.name: Kallikrein (KLK) 5 enzymatic assay (Boc-VPR-AMC fluorogenic substrate)
Assay type: biochemical
stated.conditions: recombinant human KLK5 0.1 μg/well, Boc-VPR-AMC 100 μM, pH 7.5, room temperature, 1% DMSO; tested a minimum of three times
pIC50: −log10 of the molar value.

Record CC(C)n1nc(COc2ccccc2CC(=O)O)c2cc(-c3cccc4c3OCC4N)ccc21 (stereo not shown) [Compound 212c] , field pIC50: 5.00 to 6.00

Per the record, COc1ccc(C(=N)N)cc1-c1ccc2c(c1)c(COc1ccccc1CC(=O)O)nn2C(C)C [Compound 83e] has pIC50 of 5.00 to 6.00

pIC50 for COc1c(-c2ccc3nn(C4CCC4)c(COc4ccccc4CC(=O)O)c3c2)ccnc1C(=N)NO [Compound 23g] is 5.00 to 6.00

pIC50 reading for COCCN1CC(n2nc(COc3ccccc3CC(=O)O)c3cc(-c4cccc5c(N)nccc45)ccc32)C1 [Compound 143d] : > 6.00

Briefly, pIC50 measured for COC(=O)N1CCC2(CC1)C[C@H](Oc1ccccc1CC(=O)O)c1cc(-c3ccc4ccnc(N)c4c3)ccc12 [Compound 397b] : > 6.00

The molecule listed as Nc1nccc2c(-c3cnc4c(c3)c(COc3ccccc3CC(=O)O)nn4C3CCC3)cccc12 [Compound 198b] shows pIC50 equal to > 6.00

Query CCc1cccc(OCc2nn(C3CCC3)c3ccc(-c4ccc5ccnc(N)c5c4)cc23)c1CC(=O)O [Compound 180g] yields pIC50 of 5.00 to 6.00
